Experiment: acute toxicity, LD50, rabbits
Conditions: rabbit, in vivo, iv, Miller & Tainter method, read-out: LD50 /24 hrs/kg body weight
endpoint_name: LD50 at 24 h (mg/kg)

* O=C1C(CC[S+]([O-])c2ccccc2)C(=O)N(c2ccccc2)N1c1ccccc1 (stereo not shown) [sulfinpyrazone] | 195

====

Test: acute toxicity, LD50, mice
Conditions: mouse, in vivo, iv
endpoint_name: LD50 at 24 h (mg/kg)

• O=C1C(CC[S+]([O-])c2ccccc2)C(=O)N(c2ccccc2)N1c1ccccc1 (stereo not shown) = 240
